Entry source: patent US12281125B2

- Test system: mTORc1 signaling, pS6 (Ser240/244) in MEF TSCl−/− cells
- experimentalDetails: Cell-based assay for rapalog potency (pS6) in MEF TSCl−/− cells
- protocolConditions: Mus musculus, 2 hours treatment, average from multiple assays
List of IC50 values.
Just the number please, in nM, no unit attached.

// below: answered compounds
[
  {
    "compound": "CO[C@@H]1C[C@H](C[C@@H](C)[C@@H]2CC[C@H](C)/C=C(\\C)[C@@H](O)[C@@H](OC)C(=O)[C@H](C)C[C@H](C)/C=C/C=C/C=C(\\C)[C@H](NS(C)(=O)=O)C[C@@H]3CC[C@@H](C)[C@@](O)(O3)C(=O)C(=O)N3CCCC[C@H]3C(=O)O2)CC[C@H]1OP(C)(C)=O",
    "IC50, nM": 26
  },
  {
    "compound": "CO[C@@H]1C[C@H](C[C@@H](C)[C@@H]2CC[C@H](C)/C=C(\\C)[C@@H](O)[C@@H](OC)C(=O)[C@H](C)C[C@H](C)/C=C/C=C/C=C(\\C)[C@@H](NS(=O)(=O)C3CCCC3)C[C@@H]3CC[C@@H](C)[C@@](O)(O3)C(=O)C(=O)N3CCCC[C@H]3C(=O)O2)CC[C@H]1O",
    "IC50, nM": 3.6
  }
]

Q: Query: IC50; subject: CO[C@@H]1C[C@H](C[C@@H](C)[C@@H]2CC[C@H](C)/C=C(\C)[C@@H](O)[C@@H](OC)C(=O)[C@H](C)C[C@H](C)/C=C/C=C/C=C(\C)C(N(C)S(C)(=O)=O)C[C@@H]3CC[C@@H](C)[C@@](O)(O3)C(=O)C(=O)N3CCCC[C@H]3C(=O)O2)CC[C@H]1O (single isomer, unassigned)
A: 0.3

Q: Also need "CO[C@@H]1C[C@H](C[C@@H](C)[C@@H]2CC[C@H](C)/C=C(\C)[C@@H](O)[C@@H](OC)C(=O)[C@H](C)C[C@H](C)/C=C/C=C/C=C(\C)[C@@H](NS(C)(=O)=O)C[C@@H]3CC[C@@H](C)[C@@](O)(O3)C(=O)C(=O)N3CCCC[C@H]3C(=O)O2)CC[C@H]1O" , thanks.
A: 0.11

Q: Proceed to "CCS(=O)(=O)N[C@H]1C[C@@H]2CC[C@@H](C)[C@@](O)(O2)C(=O)C(=O)N2CCCC[C@H]2C(=O)O[C@H]([C@H](C)C[C@@H]2CC[C@@H](O)[C@H](OC)C2)CC[C@H](C)/C=C(\C)[C@@H](O)[C@@H](OC)C(=O)[C@H](C)C[C@H](C)/C=C/C=C/C=C/1C"
A: 0.26

Q: And what about the compound "CN[C@@H]1C[C@@H]2CC[C@@H](C)[C@@](O)(O2)C(=O)C(=O)N2CCCC[C@H]2C(=O)O[C@H]([C@H](C)C[C@@H]2CC[C@@H](O)[C@H](OC)C2)CC[C@H](C)/C=C(\C)[C@@H](O)[C@@H](OC)C(=O)[C@H](C)C[C@H](C)/C=C/C=C/C=C/1C" ?
A: 18

Q: Moving on to the next compound: "CO[C@@H]1C[C@H](C[C@@H](C)[C@@H]2CC[C@H](C)/C=C(\C)[C@@H](O)[C@@H](OC)C(=O)[C@H](C)C[C@H](C)/C=C/C=C/C=C(\C)[C@H](NS(C)(=O)=O)C[C@@H]3CC[C@@H](C)[C@@](O)(O3)C(=O)C(=O)N3CCCC[C@H]3C(=O)O2)CC[C@H]1OCCO"
A: 1.8
